assay-info: photoluminescence quantum yield (fraction); solvent given as SMILES
condition-notes: in ClC(Cl)Cl
Mark not fulfilled for photoluminescence quantum yield values under 0.2, and fulfilled for everything at or above.

Use these answered entries as a reference point.
Ask | Record O=C1c2ccccc2-c2cc3ccccc3c(=O)n21 ; criterion: photoluminescence quantum yield no lower than 0.2. Met?
Reply | not fulfilled

Ask | Could you verify whether the entry O=C1C2=C3c4ccsc4C=CN3C(=O)C2=C2c3ccsc3C=CN12 shows photoluminescence quantum yield of no less than 0.2?
Reply | fulfilled

More entries:
Ask | State whether the measured photoluminescence quantum yield reaches 0.2, counting equality as reaching it, for N#Cc1cc2ccc(O)cc2oc1=O
Reply | not fulfilled

Ask | In plain terms: is recorded photoluminescence quantum yield at least 0.2 for c1coc(-c2nc3ccccc3[nH]2)c1 ?
Reply | fulfilled

Ask | Given the entry COc1ccc(-c2nc(-c3ccccc3)c(N(c3ccccc3)c3ccccc3)s2)cc1 , answer whether its photoluminescence quantum yield meets or surpasses 0.2.
Reply | not fulfilled

Ask | Reported photoluminescence quantum yield reaches at least 0.2 for COc1cc(N(c2ccc(C=C(C#N)C#N)c(OC)c2)c2ccc(C=C(C#N)C#N)c(OC)c2)ccc1C=C(C#N)C#N ?
Reply | not fulfilled

Ask | // inclusive: photoluminescence quantum yield at least 0.2? input: Cc1ccc(-c2oc3cccc4c5c(-c6ccc(C)cc6)c(=N)oc6cccc(c2c34)c65)cc1
Reply | not fulfilled

Ask | Could you tell me if the measured photoluminescence quantum yield of COc1ccc(C2=[N+]3C(=Nc4c(-c5ccccc5)cc(-c5ccc(OC)cc5)n4[B-]3(F)F)C(c3ccccc3)=C2)cc1 reaches 0.2 or more?
Reply | fulfilled

Ask | Could you tell me if the measured photoluminescence quantum yield of CCCCCCCCOc1ccc2c3cccc4c(OCCCCCCCC)ccc(c5cccc1c52)c43 reaches 0.2 or more?
Reply | fulfilled

Ask | Reported photoluminescence quantum yield at or above 0.2? O=c1c2cc3ccc4cccc5ccc(c2c(=O)n1-c1ccccc1)c3c45
Reply | fulfilled

* * *

assay-info: photoluminescence quantum yield (fraction); solvent given as SMILES
condition-notes: in ClCCl
Examples of compounds with documented photoluminescence quantum yield follow.
When you answer, write just the number.

Ask | Determine from records and report photoluminescence quantum yield for COc1c2ccccc2c(OC)c2c(C#CC(C)(C)C)c3cc4ccccc4cc3c(C#CC(C)(C)C)c12
Reply | 0.09

Ask | Specify reported photoluminescence quantum yield for the compound shown: CC(=O)c1c(N[C@@H](CS)C(=O)O)c2ccc(N(C)C)cc2oc1=O
Reply | 0.0025

Ask | Quote photoluminescence quantum yield reported for Cc1cc(-c2ccc(C(C)(C)C)cc2)c2nsnc2c1-c1ccc(C(C)(C)C)cc1 please.
Reply | 0.14

Ask | Please supply the value of reported photoluminescence quantum yield for the item COC(=O)[C@H](Cc1ccccc1)Nc1c(C(C)=O)c(=O)oc2cc(N(C)C)ccc12
Reply | 0.0043

Ask | Return value of photoluminescence quantum yield for input FC(F)(F)c1cc2n(n1)[B-](c1ccccc1)(c1ccccc1)[n+]1ccc3ccccc3c1-2 , no commentary.
Reply | 0.778

Continuing:
Ask | Return reported photoluminescence quantum yield. Input compound: Oc1c(-c2ccco2)cccc1-c1nc2ccccc2s1
Reply | 0.0137

Ask | Note photoluminescence quantum yield for the compound shown: COc1ccc(C2=C3C=C(/C=C/C(=O)OC(C)(C)C)C=[N+]3[B-](F)(F)n3cccc32)cc1
Reply | 0.13

Ask | Give the measured photoluminescence quantum yield for COc1cc(/C=C/c2nc3ccccc3s2)c(OC)cc1/C=C/c1nc(C)nc(C)n1
Reply | 0.86

Ask | Answer with reported photoluminescence quantum yield of CCOC(=O)C1=C(C(=O)OCC)C2(c3ccccc3-c3c(Br)cc(Br)cc32)C2(/C=C/c3ccc(Cl)cc3)c3cc(OC)c(OC)cc3CCN12 (centres undefined)
Reply | 0.00075

* * *

assay-info: photoluminescence quantum yield (fraction); solvent given as SMILES
condition-notes: in CCCCCC
parameter: photoluminescence quantum yield
No unit in the answer, only the number.

Below, each entry is followed by its recorded photoluminescence quantum yield result.
Ask | Dear colleague, please send me the reported photoluminescence quantum yield for CC(C)(C)c1cc2ccc3cc(C(C)(C)C)cc4c(N(c5ccccc5)c5ccccc5)cc(c1)c2c34 when you can.
Reply | 0.24

Ask | Item CN(C)c1ccc(/C=C/c2nc3ccccc3s2)cc1 : provide photoluminescence quantum yield
Reply | 0.0018

Ask | Query photoluminescence quantum yield for C/C=C/c1cccc(OC)c1
Reply | 0.31

Ask | Note down photoluminescence quantum yield recorded for CC(C)[Si](C#Cc1ccc(C#C[Si](C(C)C)(C(C)C)C(C)C)c2nc3c(nc12)Cc1ccccc1-3)(C(C)C)C(C)C
Reply | 0.04

Ask | Return photoluminescence quantum yield for the following compound: CN1C(=O)c2cccc3c(-n4c5ccccc5c5ccccc54)ccc(c23)C1=O
Reply | 0.895

Ask | Return the recorded photoluminescence quantum yield value; entry: O=C1c2cccc3cc4ccccc4c(c23)C(=O)N1Cc1ccccn1
Reply | 0.61

Continuing:
Ask | Note photoluminescence quantum yield for the compound shown: CN(C)c1ccc(/C=C/c2ccccn2)cc1
Reply | 0.016

Ask | Look up and state reported photoluminescence quantum yield for CC1=CC(C)=[N+]2C1=C(c1ccc(N3CCCCC3)cc1)c1c(C)cc(C)n1[B-]2(F)F
Reply | 0.384

* * *

assay-info: photoluminescence quantum yield (fraction); solvent given as SMILES
condition-notes: in CO
parameter: photoluminescence quantum yield

Ask | Check the records and state photoluminescence quantum yield for N[C@@H](Cn1nnc2cc(-c3ccc4c(c3)OCO4)ccc21)C(=O)O
Reply | 0.02

Next:
Ask | Using the record for CNc1ncc2nc(C(=O)OC)n(Cc3ccccc3)c2n1 , state its measured photoluminescence quantum yield.
Reply | 0.61

Ask | Give me measured photoluminescence quantum yield, please, for this compound: C/C(=C\c1ccc(Cl)cc1)c1nc2ccccc2o1
Reply | 0.003

Ask | Quick one: give measured photoluminescence quantum yield for CN(C)C(=O)c1ccc(-c2nc3ccc(N(C)C)cc3s2)cc1
Reply | 0.92

Ask | Hello, please tell me recorded photoluminescence quantum yield for this one: c1ccc(N(c2ccccc2)c2ccc(-c3ncc(-c4cnc(-c5ccc(N(c6ccccc6)c6ccccc6)cc5)s4)s3)cc2)cc1
Reply | 0.2

* * *

assay-info: photoluminescence quantum yield (fraction); solvent given as SMILES
condition-notes: in ClC(Cl)Cl
parameter: photoluminescence quantum yield
Form field (numeric): enter value without unit.

Ask | Supply photoluminescence quantum yield value. Item: CCn1c2ccccc2oc2c(C#N)c3oc4ccccc4oc3c(C#N)c21
Reply | 0.34

Ask | Specify measured photoluminescence quantum yield for CCCCCCCCCCCCOc1cc2c(cc1OCCCCCCCCCCCC)C1=C3C(=O)N4C=Cc5cc(OCCCCCCCCCCCC)c(OCCCCCCCCCCCC)cc5C4=C3C(=O)N1C=C2 .
Reply | 0.8

Field: next compound
Ask | Give me measured photoluminescence quantum yield, please, for this compound: COc1ccc(/C=C/C2=CC(/C=C/c3ccc(OC)cc3)=[O+][B-](OC(C)=O)(OC(C)=O)O2)cc1
Reply | 0.91

* * *

Below: a set of entries, each annotated with reported photoluminescence quantum yield.
assay-info: photoluminescence quantum yield (fraction); solvent given as SMILES
condition-notes: in CCCCOCCCC
Reply with the value as a number alone.

Ask | Look up and state reported photoluminescence quantum yield for c1ccc(-c2nn(-c3ccccc3)c3nc4ccccc4cc23)cc1
Reply | 0.88

Ask | Using the record for CN(C)c1cc(C#N)c(N(C)C)c(C#N)c1 , state its measured photoluminescence quantum yield.
Reply | 0.45

Ask | Consider the compound COc1nc(Nc2ccc3c4cccc5cccc(c6cccc2c63)c54)nc(OC)n1 . State its measured photoluminescence quantum yield.
Reply | 0.46

New cases:
Ask | Please list photoluminescence quantum yield recorded for the compound Clc1nc(Cl)nc(Nc2ccc3cc4ccccc4cc3c2)n1
Reply | 0

Ask | Identify measured photoluminescence quantum yield corresponding to Clc1nc(Cl)nc(Nc2ccc3c4cccc5cccc(c6cccc2c63)c54)n1
Reply | 0.12

Ask | For the compound Clc1nc(Cl)nc(Nc2cc3ccc4cccc5ccc(c2)c3c45)n1 , give its reported photoluminescence quantum yield.
Reply | 0.06

* * *

assay-info: photoluminescence quantum yield (fraction); solvent given as SMILES
condition-notes: in Cc1ccccc1
Threshold-based label: photoluminescence quantum yield under 0.6 gives met, photoluminescence quantum yield not under 0.6 gives not met.

Reference set, count: 5
Ask | A record lists CN(C)/C=N\c1ccc2c3c(cccc13)C(=O)c1ccccc1-2 . Is its photoluminescence quantum yield below 0.6?
Reply | not met

Ask | hey, is photoluminescence quantum yield for CCCC1=Cc2nc1ccc1[nH]c(cc1CCO)c1nc(ccc3[nH]c2cc3CCC)C(CCO)=C1 lower than 0.6 or not?
Reply | met

Ask | # strict comparison: is reported photoluminescence quantum yield < 0.6? input = O=[N+]([O-])c1ccc([N+]2=Cc3ccc4c5c(ccc4c3O[B-]2(c2ccccc2)c2ccccc2)C=[N+](c2ccc([N+](=O)[O-])cc2)[B-](c2ccccc2)(c2ccccc2)O5)cc1
Reply | not met

Ask | Decide: photoluminescence quantum yield of CCCCOc1ccc(-c2cc3c(o2)c(-c2ccc(OCCCC)cc2)c2n3[B-](F)(F)[N+]3=Cc4c(-c5ccc(OCCCC)cc5)c5oc(-c6ccc(OCCCC)cc6)cc5n4[B-](F)(F)[N+]3=C2)cc1 strictly below 0.6?
Reply | met

Ask | Is 0.6 strictly greater than the compound's reported photoluminescence quantum yield? compound: CCC1=C(C)C2=Cc3c4ccccc4c4n3[B-](c3ccncc3)(Oc3ccccc3-4)[N+]2=C1C=Cc1ccc(OC)cc1 (stereo not given)
Reply | met

Others:
Ask | Hi there! Is photoluminescence quantum yield for CCN(CC)c1ccc(/C=C/c2cc(/C=C/c3ccc(N(CC)CC)cc3)nc(N)n2)cc1 below 0.6, do you know?
Reply | not met

Ask | Would you kindly verify if photoluminescence quantum yield of C(=C\c1ccc(-c2ccc(/C=C/c3ccc(-n4c5ccccc5c5ccccc54)cc3)s2)s1)/c1ccc(-n2c3ccccc3c3ccccc32)cc1 is strictly less than 0.6?
Reply | met

Ask | Here's an entry: CCCN1/C(=C\c2c(-c3ccc(N(C)C)cc3)c(=O)c2=O)C=Cc2ccccc21 . Is its photoluminescence quantum yield below 0.6?
Reply | met

Ask | Here's an entry: CC(C)(C)c1cc2c(c(C(C)(C)C)c1)O[B-](F)(F)[n+]1c-2nc(-c2ccccc2)c2ccccc21 . Is its photoluminescence quantum yield below 0.6?
Reply | met

Ask | Determine whether this compound shows photoluminescence quantum yield lower than 0.6 (ties excluded): COc1cc(OC)cc(C2=[O+][B-](F)(F)OC(c3ccc4ccccc4c3)=C2)c1
Reply | met
